Molecular target: Toll-like receptor 7 (Homo sapiens)
Test: Agonist activity at human TLR7 expressed in HEK-Blue cells assessed as increase in NFkappaB activation by sAP reporter gene assay
Format: functional, cell-based
Task for the reader: assign each of the following compounds its reported pEC50.
Numbers only, as −log10 of the molar value.

Measured pEC50, CCCCc1nc2c(NCCCCCCCCNc3nc4ccccc4c4c3nc(CCCC)n4Cc3ccccc3)nc3ccccc3c2n1Cc1ccccc1 : 6.25

For CCCCc1nc2c(NCCCCCCCCCCNc3nc4ccccc4c4c3nc(CCCC)n4Cc3ccccc3)nc3ccccc3c2n1Cc1ccccc1 the compound record lists pEC50 as 5.52

Looking up CCCCc1nc2c(NCCCCCCCCCCCCNc3nc4ccccc4c4c3nc(CCCC)n4Cc3ccccc3)nc3ccccc3c2n1Cc1ccccc1 , I found its pEC50 recorded as 5.85

Alright, here's another compound for you.
Form: compound = CCCCc1nc2c(N)nc3ccc([N+](=O)[O-])cc3c2n1Cc1ccc(CN)cc1 ; pEC50 = 6.25

====

Molecular target: Toll-like receptor 7 (Homo sapiens)
Assay: Antagonist activity at TLR7 in human PBMC assessed as inhibition of gardiquimod-induced CXCL10 release after 12 hrs by bead array assay
Assay type: functional
reportedMetric: pIC50
Numbers only, as −log10 of the molar value.

Nc1nc2ccccc2c2c1nc(CCCc1nc3c(N)nc4ccccc4c3n1Cc1ccccc1)n2Cc1ccccc1 has a reported pIC50 of 7.30

====

I'd be grateful if you could share measured EC50 for these entries.
Target: Toll-like receptor 7 (Homo sapiens, UniProt Q9NYK1)
Experiment: Agonist activity at human TLR7 expressed in HEK-Blue cells assessed as increase in NFkappaB activation by sAP reporter gene assay
Give bare numbers, in nM.

Some solved cases for reference:
// returns EC50 for CCCCc1nc2c(N)nc3ccccc3c2n1Cc1ccc(CNC(=O)CCCCC(=O)NCc2ccc(Cn3c(CCCC)nc4c(N)nc5ccccc5c43)cc2)cc1 with Toll-like receptor 7 (Homo sapiens, UniProt Q9NYK1); value = 110

The compound CCCCc1nc2c(N)nc3ccccc3c2n1Cc1ccc(CNC(=O)CCCCCCC(=O)NCc2ccc(Cn3c(CCCC)nc4c(N)nc5ccccc5c43)cc2)cc1 , tested on Toll-like receptor 7 (Homo sapiens, UniProt Q9NYK1), showed EC50 of 240

# CCCCc1nc2c(N)nc3ccc(NC(=O)CCCCC(=O)Nc4ccc5nc(N)c6nc(CCCC)n(Cc7ccc(CN)cc7)c6c5c4)cc3c2n1Cc1ccc(CN)cc1 with Toll-like receptor 7 (Homo sapiens, UniProt Q9NYK1): EC50 is 7240

Turning now to a further compound:
Record for CCCCc1nc2c(NCCCCNc3nc4ccccc4c4c3nc(CCCC)n4Cc3ccccc3)nc3ccccc3c2n1Cc1ccccc1 under target or system Toll-like receptor 7 (Homo sapiens, UniProt Q9NYK1): EC50 reported as 2050

====

Target: Toll-like receptor 7 (Homo sapiens, UniProt Q9NYK1)
Sequence (Q9NYK1 whole entry): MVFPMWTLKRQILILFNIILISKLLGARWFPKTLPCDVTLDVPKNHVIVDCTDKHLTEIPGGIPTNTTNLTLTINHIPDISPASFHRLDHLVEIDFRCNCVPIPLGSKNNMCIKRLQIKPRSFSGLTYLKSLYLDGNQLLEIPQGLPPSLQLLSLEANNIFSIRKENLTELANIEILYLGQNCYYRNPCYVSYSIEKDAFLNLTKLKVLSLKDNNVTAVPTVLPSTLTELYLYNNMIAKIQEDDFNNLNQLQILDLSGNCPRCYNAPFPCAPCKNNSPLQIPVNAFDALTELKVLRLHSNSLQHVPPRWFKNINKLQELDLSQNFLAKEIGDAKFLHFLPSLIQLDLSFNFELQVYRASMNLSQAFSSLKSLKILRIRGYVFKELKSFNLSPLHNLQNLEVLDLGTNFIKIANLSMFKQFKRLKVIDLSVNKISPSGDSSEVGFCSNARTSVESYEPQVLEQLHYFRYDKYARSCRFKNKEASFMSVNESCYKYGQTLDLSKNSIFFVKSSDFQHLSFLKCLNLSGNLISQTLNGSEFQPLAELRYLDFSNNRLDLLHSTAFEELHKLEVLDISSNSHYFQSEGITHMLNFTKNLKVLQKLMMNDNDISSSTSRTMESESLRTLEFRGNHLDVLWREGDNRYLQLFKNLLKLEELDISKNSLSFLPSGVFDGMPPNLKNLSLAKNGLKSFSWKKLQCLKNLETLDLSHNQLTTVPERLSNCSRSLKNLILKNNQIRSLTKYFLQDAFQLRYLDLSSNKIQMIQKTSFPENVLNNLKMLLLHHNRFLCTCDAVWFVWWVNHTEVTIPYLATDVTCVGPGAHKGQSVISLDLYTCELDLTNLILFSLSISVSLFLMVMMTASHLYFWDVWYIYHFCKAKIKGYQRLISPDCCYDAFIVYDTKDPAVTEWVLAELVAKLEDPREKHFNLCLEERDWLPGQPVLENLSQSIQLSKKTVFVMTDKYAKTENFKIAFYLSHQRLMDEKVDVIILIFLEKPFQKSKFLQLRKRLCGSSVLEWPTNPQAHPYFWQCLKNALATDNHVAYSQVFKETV
Assay: Antagonist activity at TLR7 in human PBMC assessed as inhibition of gardiquimod-induced IL-8 release after 12 hrs by bead array assay
Format: functional
reportedMetric: IC50
Show the value, then the unit it is measured in.

Kindly note: Toll-like receptor 7 (Homo sapiens, UniProt Q9NYK1), Nc1nc2ccccc2c2c1nc(CCCc1nc3c(N)nc4ccccc4c3n1Cc1ccccc1)n2Cc1ccccc1 , IC50 value reported: 0.05 µM

====

Target: UniProt Q9NR97
Test: Antagonist activity at TLR8 in human PBMC assessed as inhibition of CL075-induced IL-1beta release after 12 hrs by bead array assay
Format: functional
reportedMetric: IC50 (nM)
One number for each entry, in nM.

The value of IC50 measured for the molecule Nc1nc2ccccc2c2c1nc(CCCc1nc3c(N)nc4ccccc4c3n1Cc1ccccc1)n2Cc1ccccc1 turned out to be 50

====

Target: Toll-like receptor 8 (Homo sapiens, UniProt Q9NR97)
Assay: Antagonist activity at TLR8 in human PBMC assessed as inhibition of CL075-induced CXCL10 release after 12 hrs by bead array assay
Format: functional
reportedMetric: IC50

compound Nc1nc2ccccc2c2c1nc(CCCc1nc3c(N)nc4ccccc4c3n1Cc1ccccc1)n2Cc1ccccc1 , IC50 observed: 50 nM

====

Molecular target: Toll-like receptor 8 (Homo sapiens)
Sequence (Q9NR97 whole entry): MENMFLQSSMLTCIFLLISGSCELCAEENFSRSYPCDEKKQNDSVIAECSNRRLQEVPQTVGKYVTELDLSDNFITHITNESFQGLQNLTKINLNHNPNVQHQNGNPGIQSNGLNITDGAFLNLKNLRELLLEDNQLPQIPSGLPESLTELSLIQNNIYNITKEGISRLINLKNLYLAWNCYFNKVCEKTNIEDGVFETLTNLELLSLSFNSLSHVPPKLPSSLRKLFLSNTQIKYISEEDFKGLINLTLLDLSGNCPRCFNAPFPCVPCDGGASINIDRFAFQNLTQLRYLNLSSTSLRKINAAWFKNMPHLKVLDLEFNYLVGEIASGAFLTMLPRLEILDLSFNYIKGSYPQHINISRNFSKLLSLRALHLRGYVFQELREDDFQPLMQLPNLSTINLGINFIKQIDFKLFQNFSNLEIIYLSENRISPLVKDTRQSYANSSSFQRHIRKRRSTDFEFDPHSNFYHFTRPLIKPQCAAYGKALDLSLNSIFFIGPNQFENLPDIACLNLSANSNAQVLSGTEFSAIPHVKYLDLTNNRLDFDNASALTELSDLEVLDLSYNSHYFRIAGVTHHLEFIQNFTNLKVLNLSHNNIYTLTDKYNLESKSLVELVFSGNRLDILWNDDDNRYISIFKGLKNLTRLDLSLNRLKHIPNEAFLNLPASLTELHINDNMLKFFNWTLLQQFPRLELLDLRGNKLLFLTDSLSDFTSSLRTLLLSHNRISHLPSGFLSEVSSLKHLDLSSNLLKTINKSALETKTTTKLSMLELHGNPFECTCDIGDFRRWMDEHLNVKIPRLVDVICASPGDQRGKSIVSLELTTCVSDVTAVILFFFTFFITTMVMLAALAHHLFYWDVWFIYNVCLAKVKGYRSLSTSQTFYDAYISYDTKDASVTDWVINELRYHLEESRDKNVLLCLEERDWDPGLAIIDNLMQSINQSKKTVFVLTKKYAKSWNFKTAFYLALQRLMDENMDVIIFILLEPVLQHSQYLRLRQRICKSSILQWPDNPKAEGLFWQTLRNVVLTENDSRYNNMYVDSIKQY
Experiment: Agonist activity at human TLR8 expressed in HEK-Blue cells assessed as increase in NFkappaB activation by sAP reporter gene assay
reportedMetric: pEC50
One number for each entry, as −log10 of the molar value.

Form field, pEC50 with Toll-like receptor 8 (Homo sapiens), item CCCCc1nc2c(N)nc3ccccc3c2n1Cc1ccc(CNC(=O)CCCCCCCCCCC(=O)NCc2ccc(Cn3c(CCCC)nc4c(N)nc5ccccc5c43)cc2)cc1 : 5.32

Origin of measurements: ChEMBL document CHEMBL2016459
